Below, each of the compounds is paired with its reported PT value.
Species: Rattus norvegicus
assay.name: Open TG-GATES - Regimen: Single
Assay type: toxicity, organism-based, Sprague-Dawley
Parameters: regimen Single, gender Male, age 6 weeks
experimental.context: in vivo, po, 30 mg/kg, 3 h, tissue Blood, route gavage, dose level Middle
outcome.measure: PT (s)

* CC1=C(/C=C/C(C)=C/C=C/C(C)=C/CO)C(C)(C)CCC1 [RETINOL] | 15.9
* CN(C)CCCN1c2ccccc2CCc2ccc(Cl)cc21 [CLOMIPRAMINE] | 13.6
* CN(C)CCN(Cc1cccs1)c1ccccn1 | 16.1
* CN(C)CCCN1c2ccccc2CCc2ccccc21 [IMIPRAMINE] | 15.6

---

Below, each of the compounds is paired with its reported RALB value.
Organism: Rattus norvegicus
assay.name: Open TG-GATES - Regimen: Single
Assay type: toxicity, organism-based, Sprague-Dawley
Set-up: regimen Single, gender Male, age 6 weeks
experimental.context: in vivo, po, 300 mg/kg, 9 h, tissue Plasma, route gavage, dose level Middle
outcome.measure: RALB (g/dL)

• CCOC(=O)CCC(=O)O[C@H]1[C@H](O[C@@H]2[C@@H](C)[C@H](O[C@H]3C[C@@](C)(OC)[C@@H](O)[C@H](C)O3)[C@@H](C)C(=O)O[C@H](CC)[C@@](C)(O)[C@H](O)[C@@H](C)C(=O)[C@H](C)C[C@@]2(C)O)O[C@H](C)C[C@@H]1N(C)C [ERYTHROMYCIN ETHYLSUCCINATE] = 3
• NC(N)=Nc1nc(CSCCC(N)=NS(N)(=O)=O)cs1 [FAMOTIDINE] = 3.3
• COc1ccc2[nH]c([S+]([O-])Cc3ncc(C)c(OC)c3C)nc2c1 (centres undefined) [OMEPRAZOLE] = 3.4
• COC1=CC(=O)C[C@@H](C)[C@]12Oc1c(Cl)c(OC)cc(OC)c1C2=O [GRISEOFULVIN] = 3.3

---

Organism: Rattus norvegicus
assay.name: Open TG-GATES - Regimen: Single
Assay type: toxicity, organism-based, Sprague-Dawley
Parameters: regimen Single, gender Male, age 6 weeks
experimental.context: in vivo, po, 30 mg/kg, 3 h, tissue Blood, route gavage, dose level Middle
outcome.measure: Bas (%)

• CN(C)CCCN1c2ccccc2CCc2ccc(Cl)cc21 [CLOMIPRAMINE] = 0.2
• CN(C)CCCN1c2ccccc2CCc2ccccc21 [IMIPRAMINE] = 0.2
• CC1=C(/C=C/C(C)=C/C=C/C(C)=C/CO)C(C)(C)CCC1 [RETINOL] = 0
• CN(C)CCN(Cc1cccs1)c1ccccn1 = 0

---

Species on record: Rattus norvegicus
assay.name: Open TG-GATES - Regimen: Daily Repeat
Type: toxicity, organism-based, Sprague-Dawley
Design: regimen Daily Repeat, gender Male, age 6 weeks
experimental.context: in vivo, po, 0 mg/kg, […], tissue Blood, route gavage, dose level Control, time 14 day
Rule: measured APTT below 20 s gets true; anything equal to or greater than 20 s gets false.

* CN(C)CCN(Cc1cccs1)c1ccccn1 | false
* CN(C)CCCN1c2ccccc2CCc2ccccc21 [IMIPRAMINE] | true
* CCOc1ccc(NC(=O)CC(C)O)cc1 (stereo not given) [BUCETIN] | true
* NNC(=O)c1ccncc1 [ISONIAZID] | true
* NC(N)=Nc1nc(CSCCC(N)=NS(N)(=O)=O)cs1 [FAMOTIDINE] | false

---

Species: Rattus norvegicus
assay.name: Open TG-GATES - Regimen: Single
Assay type: toxicity, organism-based, Sprague-Dawley
Parameters: regimen Single, gender Male, age 6 weeks
experimental.context: in vivo, po, 0 mg/kg, 6 h, tissue Plasma, route gavage, dose level Control
Below, each of the compounds is paired with its reported GLC value.
outcome.measure: GLC (mg/dL)

* CN(C)CCCN1c2ccccc2CCc2ccccc21 [IMIPRAMINE] | 176.2
* COc1ccc2[nH]c([S+]([O-])Cc3ncc(C)c(OC)c3C)nc2c1 (centres undefined) [OMEPRAZOLE] | 201
* O=C(CCCN1CCC(O)(c2ccc(Cl)cc2)CC1)c1ccc(F)cc1 [HALOPERIDOL] | 175.2
* CCCNC(=O)NS(=O)(=O)c1ccc(Cl)cc1 [CHLORPROPAMIDE] | 174
* CN1C(=O)CN=C(c2ccccc2)c2cc(Cl)ccc21 [DIAZEPAM] | 203
* CC(C)OC(=O)C(C)(C)Oc1ccc(C(=O)c2ccc(Cl)cc2)cc1 [FENOFIBRATE] | 173.8
* NC(N)=Nc1nc(CSCCC(N)=NS(N)(=O)=O)cs1 [FAMOTIDINE] | 193.8
* COc1cc2c(c(OC)c1OC)-c1ccc(OC)c(=O)cc1[C@@H](NC(C)=O)CC2 [COLCHICINE] | 188.2
* C[C@@H]1C[C@H]2[C@@H]3CCC4=CC(=O)C=C[C@]4(C)[C@@]3(F)[C@@H](O)C[C@]2(C)[C@@]1(O)C(=O)CO [DEXAMETHASONE] | 164.8

---

Organism: Rattus norvegicus
assay.name: Open TG-GATES - Regimen: Single
Assay type: toxicity, organism-based, Sprague-Dawley
Parameters: regimen Single, gender Male, age 6 weeks
experimental.context: in vivo, po, 10 mg/kg, 6 h, tissue Plasma, route gavage, dose level Low
Below, each of the compounds is paired with its reported ALT value.
outcome.measure: ALT (IU/L)

* CN(C)CCCN1c2ccccc2CCc2ccc(Cl)cc21 | 39.4
* CC1=C(/C=C/C(C)=C/C=C/C(C)=C/CO)C(C)(C)CCC1 | 35.8
* CN(C)CCN(Cc1cccs1)c1ccccn1 | 37.6
* CC(C)OC(=O)C(C)(C)Oc1ccc(C(=O)c2ccc(Cl)cc2)cc1 [FENOFIBRATE] | 43.4
* CN(C)CCCN1c2ccccc2CCc2ccccc21 | 54.4

---

Species on record: Rattus norvegicus
assay.name: Open TG-GATES - Regimen: Single
Format: toxicity, organism-based, Sprague-Dawley
Design: regimen Single, gender Male, age 6 weeks
experimental.context: in vivo, po, 100 mg/kg, 3 h, tissue Plasma, route gavage, dose level Low
outcome.measure: Cl

- CCOC(=O)CCC(=O)O[C@H]1[C@H](O[C@@H]2[C@@H](C)[C@H](O[C@H]3C[C@@](C)(OC)[C@@H](O)[C@H](C)O3)[C@@H](C)C(=O)O[C@H](CC)[C@@](C)(O)[C@H](O)[C@@H](C)C(=O)[C@H](C)C[C@@]2(C)O)O[C@H](C)C[C@@H]1N(C)C [ERYTHROMYCIN ETHYLSUCCINATE]: 102.8 meq/L
- NC(N)=Nc1nc(CSCCC(N)=NS(N)(=O)=O)cs1: 104.2 meq/L
- COc1ccc2[nH]c([S+]([O-])Cc3ncc(C)c(OC)c3C)nc2c1 (centres undefined): 100.6 meq/L
- COC1=CC(=O)C[C@@H](C)[C@]12Oc1c(Cl)c(OC)cc(OC)c1C2=O: 104.2 meq/L

---

Organism: Rattus norvegicus
assay.name: Open TG-GATES - Regimen: Daily Repeat
Format: toxicity, organism-based, Sprague-Dawley
Parameters: regimen Daily Repeat, gender Male, age 6 weeks
experimental.context: in vivo, po, 100 mg/kg, […], tissue Plasma, route gavage, dose level Low, time 7 day
outcome.measure: TG (mg/dL)

• CCOc1ccc(NC(=O)CC(C)O)cc1 (stereo not given) [BUCETIN] = 143
• COc1ccc2[nH]c([S+]([O-])Cc3ncc(C)c(OC)c3C)nc2c1 (stereo not given) [OMEPRAZOLE] = 85.2
• CCOC(=O)CCC(=O)O[C@H]1[C@H](O[C@@H]2[C@@H](C)[C@H](O[C@H]3C[C@@](C)(OC)[C@@H](O)[C@H](C)O3)[C@@H](C)C(=O)O[C@H](CC)[C@@](C)(O)[C@H](O)[C@@H](C)C(=O)[C@H](C)C[C@@]2(C)O)O[C@H](C)C[C@@H]1N(C)C [ERYTHROMYCIN ETHYLSUCCINATE] = 111.4
• NC(N)=Nc1nc(CSCCC(N)=NS(N)(=O)=O)cs1 [FAMOTIDINE] = 98.2
• COC1=CC(=O)C[C@@H](C)[C@]12Oc1c(Cl)c(OC)cc(OC)c1C2=O [GRISEOFULVIN] = 75

---

Below, each of the compounds is paired with its reported Hb value.
Species on record: Rattus norvegicus
assay.name: Open TG-GATES - Regimen: Daily Repeat
Assay type: toxicity, organism-based, Sprague-Dawley
Parameters: regimen Daily Repeat, gender Male, age 6 weeks
experimental.context: in vivo, po, 1000 mg/kg, 72 h, tissue Blood, route gavage, dose level High, time 3 day
outcome.measure: Hb (g/dL)

• NC(N)=Nc1nc(CSCCC(N)=NS(N)(=O)=O)cs1 [FAMOTIDINE] = 13.2
• COc1ccc2[nH]c([S+]([O-])Cc3ncc(C)c(OC)c3C)nc2c1 (stereo not given) [OMEPRAZOLE] = 13.8
• CCOc1ccc(NC(=O)CC(C)O)cc1 (stereo not given) [BUCETIN] = 12.8
• CCOC(=O)CCC(=O)O[C@H]1[C@H](O[C@@H]2[C@@H](C)[C@H](O[C@H]3C[C@@](C)(OC)[C@@H](O)[C@H](C)O3)[C@@H](C)C(=O)O[C@H](CC)[C@@](C)(O)[C@H](O)[C@@H](C)C(=O)[C@H](C)C[C@@]2(C)O)O[C@H](C)C[C@@H]1N(C)C [ERYTHROMYCIN ETHYLSUCCINATE] = 14.4
• COC1=CC(=O)C[C@@H](C)[C@]12Oc1c(Cl)c(OC)cc(OC)c1C2=O [GRISEOFULVIN] = 13.5

Each recorded value in this set is attributed to ChEMBL document CHEMBL3885861.
